test_system: acetylcholine receptor
measurement_protocol: SPR, AchR immobilized on chip
assay_endpoint: Binding affinity (RU)
Hi! Could you send only the number? It should be in RU, unit omitted.

*Q* Fill in reported Binding affinity (RU) for this entry: KSLLR [5mer-ND]
*A* 23

*Q* // fetch Binding affinity (RU) given entry KWRQKR [6mer-2-233]
*A* 190

*Q* Please report the measured Binding affinity (RU) for RRGVRR [6mer-1-210]
*A* 184

*Q* Answer with the recorded Binding affinity (RU) for the binder listed here: RWRYKR [6mer-2-136]
*A* 194
